Conditions: human gut metagenome, 24 h, 2 µM; note: call rule not given here
test.readout: Bacterial Biotransformation

The following molecules have reported results that may help.
| molecule | Bacterial Biotransformation |
| --- | --- |
| CCOc1cc(CC(=O)N[C@@H](CC(C)C)c2ccccc2N2CCCCC2)ccc1C(=O)O [REPAGLINIDE] | Compound metabolized |
| O=C1N=C([O-])NC1(c1ccccc1)c1ccccc1.[Na+] [PHENYTOIN SODIUM] | Compound NOT metabolized |
| CC(C)(C)NCC(O)c1cc(Cl)c(N)c(Cl)c1 (stereo unspecified) | Compound NOT metabolized |
| O=C([O-])C[C@H](O)C[C@H](O)/C=C/c1c(C2CC2)nc2ccccc2c1-c1ccc(F)cc1.O=C([O-])C[C@H](O)C[C@H](O)/C=C/c1c(C2CC2)nc2ccccc2c1-c1ccc(F)cc1.[Ca+2] | Compound NOT metabolized |
| Cc1nc(Nc2ncc(C(=O)Nc3c(C)cccc3Cl)s2)cc(N2CCN(CCO)CC2)n1 [DASATINIB ANHYDROUS] | Compound NOT metabolized |

Hey, can you go through the list below and give me Bacterial Biotransformation for every item?
1. C[C@@H](c1ncncc1F)[C@](O)(Cn1cncn1)c1ccc(F)cc1F
2. C#C[C@]1(OC(C)=O)CC[C@H]2[C@@H]3CCC4=CC(=O)CC[C@@H]4[C@H]3CC[C@@]21C [NORETHINDRONE ACETATE]
3. OCCN(CCO)c1nc(N2CCCCC2)c2nc(N(CCO)CCO)nc(N3CCCCC3)c2n1
4. CNCC[C@H](Oc1cccc2ccccc12)c1cccs1

Ans.
1. Compound metabolized
2. Compound metabolized
3. Compound metabolized
4. Compound NOT metabolized

Please supply Bacterial Biotransformation for each of the following items, keeping them in order.
1. CC(C)(C)NC(=O)[C@H]1CC[C@H]2[C@@H]3CC[C@H]4NC(=O)C=C[C@]4(C)[C@H]3CC[C@]12C [FINASTERIDE]
2. C[N+]12CCC(CC1)C(OC(=O)C(O)(c1ccccc1)c1ccccc1)C2.[Br-] (stereo unspecified) [CLIDINIUM BROMIDE]
3. CN(C)CCc1c[nH]c2ccc(CS(=O)(=O)N3CCCC3)cc12

Ans.
1. Compound metabolized
2. Compound NOT metabolized
3. Compound NOT metabolized

// each listed molecule needs a value for Bacterial Biotransformation
1. CCN(CC)CCNC(=O)c1cc(S(C)(=O)=O)ccc1OC [TIAPRIDE]
2. O=C(O)CCC(=O)O.O=C(O[C@H]1CN2CCC1CC2)N1CCc2ccccc2[C@@H]1c1ccccc1 [SOLIFENACIN SUCCINATE]
3. Cc1ccccc1C(OCCN(C)C)c1ccccc1.O=C(O)CC(O)(CC(=O)O)C(=O)O (stereo unspecified) [ORPHENADRINE CITRATE]
4. CC(NC(C)(C)C)C(=O)c1cccc(Cl)c1 (stereo unspecified)

Ans.
Compound NOT metabolized
Compound NOT metabolized
Compound NOT metabolized
Compound NOT metabolized

###

Test: The drug is tested on Z-030 corresponding to mouse gut metagenome with ENA study accession number: PRJEB37062 and ENA sample accession number: ERS12561829 for biotransformation under anaerobic condition. The drug concentrations were measured over 9 timepoints collected between 0 and 24 hours of incubation by liquid-chromatography-coupled mass spectrometry (LC–MS)
Details: 2 µM
test.readout: Bacterial Biotransformation

Some compounds with recorded Bacterial Biotransformation:
| compound | test.readout | reported.result |
| --- | --- | --- |
| CC(C)c1c(CN(C)C(C)Cc2ccccc2)n(C)n(-c2ccccc2)c1=O (stereo unspecified) | Bacterial Biotransformation | Compound NOT metabolized |
| CCOC(=O)[C@H](CCc1ccccc1)N[C@@H](C)C(=O)N1Cc2ccccc2C[C@H]1C(=O)O | Bacterial Biotransformation | Compound NOT metabolized |
| C#C[C@]1(OC(C)=O)CC[C@H]2[C@@H]3CCC4=C/C(=N/O)CC[C@@H]4[C@H]3CC[C@@]21CC [NORGESTIMATE] | Bacterial Biotransformation | Compound metabolized |
| CC1Cc2ccccc2N1NC(=O)c1ccc(Cl)c(S(N)(=O)=O)c1 (stereo unspecified) [INDAPAMIDE] | Bacterial Biotransformation | Compound NOT metabolized |
| Br.CN1CCC[C@@H]1Cc1c[nH]c2ccc(CCS(=O)(=O)c3ccccc3)cc12 [ELETRIPTAN HYDROBROMIDE] | Bacterial Biotransformation | Compound NOT metabolized |
| OCCN(CCO)c1nc(N2CCCCC2)c2nc(N(CCO)CCO)nc(N3CCCCC3)c2n1 | Bacterial Biotransformation | Compound NOT metabolized |
| O=C1C(CC[S+]([O-])c2ccccc2)C(=O)N(c2ccccc2)N1c1ccccc1 (stereo unspecified) | Bacterial Biotransformation | Compound NOT metabolized |
| COc1ccc2c(c1)c(CC(=O)O)c(C)n2C(=O)c1ccc(Cl)cc1 | Bacterial Biotransformation | Compound NOT metabolized |
| CC(=O)SCC(Cc1ccccc1)C(=O)NCC(=O)OCc1ccccc1 (stereo unspecified) | Bacterial Biotransformation | Compound metabolized |
| COc1ccccc1OCCNCC(O)COc1cccc2[nH]c3ccccc3c12 (stereo unspecified) | Bacterial Biotransformation | Compound NOT metabolized |

Give measured Bacterial Biotransformation for every item shown.
1. CCN1CCCC1CNC(=O)c1cc(S(=O)(=O)CC)c(N)cc1OC (stereo unspecified) [AMISULPRIDE]
2. CCOc1cc(CC(=O)N[C@@H](CC(C)C)c2ccccc2N2CCCCC2)ccc1C(=O)O [REPAGLINIDE]
3. CC(NC(C)(C)C)C(=O)c1cccc(Cl)c1 (stereo unspecified)
4. COC1=C(OC)C(=O)C(CCCCCCCCCCO)=C(C)C1=O
5. O=C(O)c1cc(/N=N/c2ccc(S(=O)(=O)Nc3ccccn3)cc2)ccc1O

Ans.
1: Compound NOT metabolized; 2: Compound NOT metabolized; 3: Compound NOT metabolized; 4: Compound NOT metabolized; 5: Compound metabolized

Qu. Supply Bacterial Biotransformation value. Item: C=C[C@H]1CN2CC[C@H]1C[C@H]2[C@H](O)c1ccnc2ccc(OC)cc12.C=C[C@H]1CN2CC[C@H]1C[C@H]2[C@H](O)c1ccnc2ccc(OC)cc12.O.O.O=S(=O)(O)O [QUININE SULFATE]
Ans. Compound NOT metabolized

These data points were gathered from ChEMBL document CHEMBL5724914.
